Read-out: serum amyloid A (SAA), SAA1 (gene 6288)
Test: BSK_CASM3C_SAA: BioMAP Diversity Plus: CASM3C Assay for serum amyloid A (SAA) Biomarker Activity (AID 2283049);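 note: SAA protein level quantified by ELISA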
Conditions: primary human coronary artery smooth muscle cells; actives raise or lower the signal
Activity calls are given as the source filed them. Rule for the calls: active = hit-call score of the fitted dose curve at least 0.9, where 1 is the maximum; inactive = score below 0.9.
The reply should be one of these categories: 1 (yes) (active), 0 (no) (inactive)

Example results:
[
  {
    "Compound": "CCc1cccc(C)c1N(C(=O)CCl)C(C)COC (centres undefined)",
    "Assigned Class": "0 (no)"
  },
  {
    "Compound": "CCOC(=O)CC(SP(=O)(OC)OC)C(=O)OCC (centres undefined)",
    "Assigned Class": "0 (no)"
  },
  {
    "Compound": "CCOC(=O)COc1cc(-c2nn(C)c(OC(F)F)c2Cl)c(F)cc1Cl",
    "Assigned Class": "0 (no)"
  },
  {
    "Compound": "CCOP(=S)(OCC)Oc1cc(C)nc(C(C)C)n1",
    "Assigned Class": "0 (no)"
  },
  {
    "Compound": "Cc1cc(C2CC2)nc(Nc2ccccc2)n1",
    "Assigned Class": "0 (no)"
  }
]

Query block: What was the test verdict on `CNc1cnn(-c2cccc(C(F)(F)F)c2)c(=O)c1Cl` ?
Result block: 0 (no)

====

Read-out: Interleukin-8 (IL8), CXCL8 (gene 3576)
Experiment: BSK_hDFCGF_IL8: BioMAP Diversity Plus: hDFCGF Assay for Interleukin-8 (IL8) Biomarker Activity (AID 2283058)
Conditions: primary human foreskin fibroblasts; actives raise or lower the signal
Activity calls are given as the source filed them. Rule for the calls: active = hit-call score of the fitted dose curve at least 0.9, where 1 is the maximum; inactive = score below 0.9.
Hi there, use one of these labels in your reply, thanks! Yes (active), No (inactive)

Query block: Outcome logged for `CCCOc1nn(C(=O)NS(=O)(=O)c2ccccc2C(=O)OC)c(=O)n1C` in this assay:
Result block: No

Query block: Could you check what this test reported for `COc1ccc(C(=CC(=O)N2CCOCC2)c2ccc(Cl)cc2)cc1OC` ?
Result block: No

Query block: How did this test come out for CCc1cnc(C2=NC(C)(C(C)C)C(=O)N2)c(C(=O)O)c1 (configuration not stated) ?
Result block: No

====

Test: ATG_M_61_CIS: Attagene CIS-FACTORIAL HepG2 Assay for M61 Transcription Factor (Internal Marker) (AID 2282937)
Conditions: HepG2 Attagene CIS-FACTORIAL M61 internal marker reporter; actives raise or lower the signal
Activity calls are given as the source filed them. Rule for the calls: active = hit-call score of the fitted dose curve at least 0.9, where 1 is the maximum; inactive = score below 0.9.
Measured Quantity: outcome

Look over these answered cases.
[
  {
    "Compound": "CC(C)[C@H](C(=O)O[C@H](C#N)c1cccc(Oc2ccccc2)c1)c1ccc(Cl)cc1",
    "outcome": "inactive"
  },
  {
    "Compound": "CNC(=O)ON=C(C)SC",
    "outcome": "inactive"
  },
  {
    "Compound": "CCOP(=S)(OCC)Oc1ccc([N+](=O)[O-])cc1",
    "outcome": "inactive"
  },
  {
    "Compound": "CCOP(=S)(OCC)Oc1ccc2c(C)c(Cl)c(=O)oc2c1",
    "outcome": "inactive"
  },
  {
    "Compound": "CSc1nnc(C(C)(C)C)c(=O)n1N",
    "outcome": "inactive"
  },
  {
    "Compound": "COc1cc(OC)nc(Sc2cccc(Cl)c2C(=O)O)n1",
    "outcome": "inactive"
  },
  {
    "Compound": "CCCCOC(=O)c1ccccc1C(=O)O",
    "outcome": "inactive"
  },
  {
    "Compound": "COc1cccc(C(=O)NN(C(=O)c2cc(C)cc(C)c2)C(C)(C)C)c1C",
    "outcome": "inactive"
  }
]

Turning now to a further compound:
Query block: Record request: outcome value, item `CC(=NC#N)N(C)Cc1ccc(Cl)nc1`
Result block: inactive

====

Read-out: C-C motif chemokine 2 (Homo sapiens) (UniProt P13500)
Experiment: BSK_KF3CT_MCP1: BioMAP Diversity Plus: KF3CT Assay for Monocyte Chemoattractant Protein 1 (MCP1/CCL2) Biomarker Activity (AID 2283073)
Conditions: primary human keratinocytes with fibroblasts; actives raise or lower the signal
Active and inactive are the calls of the source. Rule for the calls: active = hit-call score of the fitted dose curve at least 0.9, where 1 is the maximum; inactive = score below 0.9.
Can you answer with just one of these options? t (active), f (inactive)

[
  {
    "Compound": "CCOP(=S)(OCC)Oc1cc(C)nc(C(C)C)n1",
    "Assigned Class": "f"
  }
]

Query block: For this compound, state the assay outcome: `CN1COCN(Cc2cnc(Cl)s2)C1=N[N+](=O)[O-]`
Result block: f

====

Experiment: ATG_DR4_LXR_CIS: Attagene CIS-FACTORIAL HepG2 Assay for human Liver X Receptor (LXR), DR4 submotif (AID 2282929)
Conditions: HepG2 Attagene DR4 cis-reporter, mRNA transcription; actives raise or lower the signal
Active and inactive are the calls of the source. The calls were made as follows: active = hit-call score of the fitted dose curve at least 0.9, where 1 is the maximum; inactive = score below 0.9.
Lab note: assign the record to one of active, inactive

Please review the entries below; each comes with its answer.
[
  {
    "Compound": "CNC(=O)ON=C(SC)C(=O)N(C)C",
    "Assigned Class": "inactive"
  },
  {
    "Compound": "CCC(=NOC/C=C/Cl)C1=C(O)CC(C2CCOCC2)CC1=O (stereo not drawn)",
    "Assigned Class": "inactive"
  },
  {
    "Compound": "COP(=O)(OC)OC(Br)C(Cl)(Cl)Br (stereo not drawn)",
    "Assigned Class": "inactive"
  }
]

Query block: Dear all, I need the recorded test outcome for `Cc1cc(C2CC2)nc(Nc2ccccc2)n1` , thank you.
Result block: inactive

Query block: How was `O=C(O)c1cc(Oc2ccc(C(F)(F)F)cc2Cl)ccc1[N+](=O)[O-]` classified in this test?
Result block: inactive

Query block: Status in this test for CC(C)=CC1C(C(=O)OCN2C(=O)C3=C(CCCC3)C2=O)C1(C)C (stereo not drawn) ?
Result block: active

Query block: Can you look up the reported call for `CCCCN(CC)c1c([N+](=O)[O-])cc(C(F)(F)F)cc1[N+](=O)[O-]` for me?
Result block: inactive

====

Experiment: BSK_LPS_SRB: Viability Assessment in the BioMAP Diversity Plus: LPS Assay (AID 2283079);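 note: total protein by sulforhodamine B absorbance as a cytotoxicity measure; measured one day after compound addition; fitted in both directions against DMSO so loss or gain of signal counts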
Conditions: primary human HUVEC with PBMC
Calls of active or inactive are those of the source. Rule for the calls: active = hit-call score of the fitted dose curve at least 0.9, where 1 is the maximum; inactive = score below 0.9.
Return exactly one item of 1 = active, 0 = inactive

# example entries with known answers
[
  {
    "Molecule": "CCOP(=O)(SC(C)CC)N1CCSC1=O (centres undefined)",
    "Assigned Class": 0
  },
  {
    "Molecule": "CCOP(=O)(NC(C)C)Oc1ccc(SC)c(C)c1 (centres undefined)",
    "Assigned Class": 0
  },
  {
    "Molecule": "CC(C)=CC1C(C(=O)OCN2C(=O)C3=C(CCCC3)C2=O)C1(C)C (centres undefined)",
    "Assigned Class": 0
  }
]

Query block: Record request — test call for `CCC(CC)Nc1c([N+](=O)[O-])cc(C)c(C)c1[N+](=O)[O-]`
Result block: 1

Query block: Hey, what did the test say about `CNC(=O)ON=C(C)SC` ?
Result block: 0

Query block: Kindly provide the recorded test outcome for the following molecule: `CCCCN(CC)c1c([N+](=O)[O-])cc(C(F)(F)F)cc1[N+](=O)[O-]`
Result block: 0

Query block: Which outcome was assigned to `C=C(C)[C@H]1Cc2c(ccc3c2O[C@@H]2COc4cc(OC)c(OC)cc4[C@@H]2C3=O)O1` in this test?
Result block: 1

Query block: Assay outcome for CC(Oc1cccc(Cl)c1)C(=O)O (centres undefined) : what was it?
Result block: 0

Query block: Please share the test call associated with `CC(=NC#N)N(C)Cc1ccc(Cl)nc1` .
Result block: 0

====

Biological target: Bile acid receptor (Homo sapiens)
Assay: OT_FXR_FXRSRC1_1440: Odyssey Thera (OT) 24-hour HEK293T Protein-Complementation Assay for Farnesoid X receptor/SRC-1 Co-activator (AID 2283384)
Inconclusive results are not listed. Active and inactive are the calls of the source. Rule for the calls: active = hit-call score of the fitted dose curve at least 0.9, where 1 is the maximum; inconclusive = response in the unintended direction; inactive = score below 0.9.
# valid calls are y for active, n for inactive; nothing else

Consider the worked cases shown below.
[
  {
    "Molecule": "COP(=O)(OC)C(O)C(Cl)(Cl)Cl (stereo not given)",
    "Target Entity": "Bile acid receptor (Homo sapiens)",
    "Assigned Class": "y"
  },
  {
    "Molecule": "CCOP(=O)(OCC)Oc1cc(C)nc(C(C)C)n1",
    "Target Entity": "Bile acid receptor (Homo sapiens)",
    "Assigned Class": "n"
  },
  {
    "Molecule": "CC1(C(=O)Nc2ccc(O)c(Cl)c2Cl)CCCCC1",
    "Target Entity": "Bile acid receptor (Homo sapiens)",
    "Assigned Class": "n"
  },
  {
    "Molecule": "C#CCC1=C(C)C(OC(=O)C2C(C=C(C)C)C2(C)C)CC1=O (stereo not given)",
    "Target Entity": "Bile acid receptor (Homo sapiens)",
    "Assigned Class": "y"
  },
  {
    "Molecule": "CCc1cccc(CC)c1N(COC)C(=O)CCl",
    "Target Entity": "Bile acid receptor (Homo sapiens)",
    "Assigned Class": "n"
  },
  {
    "Molecule": "C[Si](Cn1cncn1)(c1ccc(F)cc1)c1ccc(F)cc1",
    "Target Entity": "Bile acid receptor (Homo sapiens)",
    "Assigned Class": "n"
  },
  {
    "Molecule": "CSc1nnc(C(C)(C)C)c(=O)n1N",
    "Target Entity": "Bile acid receptor (Homo sapiens)",
    "Assigned Class": "n"
  },
  {
    "Molecule": "CCCSP(=O)(OCC)SCCC",
    "Target Entity": "Bile acid receptor (Homo sapiens)",
    "Assigned Class": "n"
  },
  {
    "Molecule": "CCOP(=O)(NC(C)C)Oc1ccc(SC)c(C)c1 (stereo not given)",
    "Target Entity": "Bile acid receptor (Homo sapiens)",
    "Assigned Class": "y"
  },
  {
    "Molecule": "CCCSP(=O)(OCC)Oc1ccc(Br)cc1Cl (stereo not given)",
    "Target Entity": "Bile acid receptor (Homo sapiens)",
    "Assigned Class": "n"
  }
]

Query block: Hi, sorry to bother you, what did the test record for `CNC(=O)Oc1cccc2c1OC(C)(C)O2` ?
Result block: n

Query block: Status in this test for `CNc1cnn(-c2cccc(C(F)(F)F)c2)c(=O)c1Cl` ?
Result block: n
